All values here come from ChEMBL document CHEMBL1148329.

Biological target: Alpha-2A adrenergic receptor (Rattus norvegicus)
Sequence (whole entry): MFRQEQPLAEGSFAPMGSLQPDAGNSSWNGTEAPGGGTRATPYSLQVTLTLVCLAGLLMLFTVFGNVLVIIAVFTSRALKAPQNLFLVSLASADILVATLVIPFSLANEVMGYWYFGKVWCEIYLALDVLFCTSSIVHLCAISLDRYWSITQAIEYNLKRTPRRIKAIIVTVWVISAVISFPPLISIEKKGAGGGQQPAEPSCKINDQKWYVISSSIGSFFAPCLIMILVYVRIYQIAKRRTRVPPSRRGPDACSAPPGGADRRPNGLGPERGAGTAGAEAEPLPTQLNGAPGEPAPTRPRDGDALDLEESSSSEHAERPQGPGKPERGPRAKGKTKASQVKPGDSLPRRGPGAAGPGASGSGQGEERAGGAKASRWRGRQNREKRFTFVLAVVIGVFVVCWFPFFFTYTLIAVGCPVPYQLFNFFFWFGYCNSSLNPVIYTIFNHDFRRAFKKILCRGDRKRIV
Test: Efficacy relative to clonidine to constrict tissue containing the alpha-2A adrenergic receptor in rat prostatic vas deferens
For each of the molecules below, state its Efficacy.
Give the value, in units of %, as a plain number.

Query: Efficacy; subject: O=C(Nc1cccc2c1CCCC2c1c[nH]cn1)C(F)(F)F (stereo unspecified)
100

Which Efficacy reading was recorded for the molecule CCS(=O)(=O)Nc1cccc2c1CCC2c1c[nH]cn1 (stereo unspecified) ?
26

Endpoint output: Efficacy of CS(=O)(=O)Nc1cccc2c1CCCC2c1c[nH]cn1 (stereo unspecified) . Value?
62

For the molecule CC(=O)Nc1cccc2c1CCCC2c1c[nH]cn1 (stereo unspecified) , what Efficacy is on record?
100

Given the entry `CCS(=O)(=O)Nc1cccc(Cc2c[nH]cn2)c1` , report its measured Efficacy.
34

Entry COc1ccc(OC)c(C(O)CN)c1 (stereo unspecified) [DESGLYMIDODRINE] : reported Efficacy = ?
20

For the molecule shown here, CN(c1cccc2c1CCCC2c1c[nH]cn1)S(C)(=O)=O (stereo unspecified) , give the reported Efficacy.
100

Report Efficacy for O=S(=O)(CC(F)(F)F)Nc1cccc2c1CCCC2c1c[nH]cn1 (single isomer, unassigned; (+)) please.
100

So what's the measured Efficacy for this one? `CS(=O)(=O)Nc1cccc2c1CCC[C@H]2c1c[nH]cn1`
29

GET /values?readout=Efficacy&item= CCS(=O)(=O)Nc1cccc2c1CCCC2c1c[nH]cn1 (single isomer, unassigned; (+))
66

Any idea what its Efficacy is? The molecule is CC(N)C(O)c1ccccc1 (stereo unspecified) [PHENYLPROPANOLAMINE]
85
